Target: human C5 (human)
Assay: SPR, pH 5.8, 37C
measurement_name: pKd
// pKd here means minus log10 of the molar concentration (mol/L)

Some solved entries appear below for comparison.
binder: CFA0366 (antibody, V domains shown) VH: QSLEESGGDLVKPGASLSLTCTAAGLDFSSSYYMCWVRQAPGKGLEWIACIYAGSSGIIYYANWAKGRFTISRPSSTTVTLQMTSLTAADTATYFCATYPTYGDGGHAFNLWGPGTLVTVSS VL: AQVLTQTPSSVSAAVGGTVTINCQSSQSVYSSDYLSWYQQKPGQPPKLLIYEASKLASGVPPRFSGSGSGTQFTLTISGVQCDDAATYYCQGTYYSSGWYFAFGGGTEVVVK
pKd: 7.12
//
binder: CFA0307 (antibody, V domains shown) VH: QSLEESGGGLVKPGASLTLTCKASGIDFSNFYYICWVRQAPGKGLDLIACIYTVSGYTYYASWAKGRLTISKTSSTTVTLQMTSLTAADTATYFCARDLHAGITNLWGPGTLVTVSS VL: AIEMTQTPFSVSAAVGGTVTIKCQASQNIYSNLAWYQQKPGQRPKLLIYGASNLESGVPSRFKGSGSGTEYTLTISDLECADAATYYCLQGYSYSNVDDAFGGGTEVVVK
pKd: 6.79

Shift focus to the following entry.
In: Please give the measured pKd for this binder: CFA0305 (antibody, V domains shown) VH: QSLEESGGDLVKPGASLAVTCTASGFSSSSSYYMCWVRQAPGKGLEWIGCIYTGSGATYYASWAKGRFTISKTSSTTVTLQMTSLTVADTATYFCASDGGYVTPTHAMYLWGPGTLVTVSS VL: DVVMTQTPASVSAAVGGTVTIKCQASQNIGSDLAWYQQKPGQPPRLLIYGASKLASGVSSRFSGSGSGKEFTLTISDLECADAVTYYCQCTFVGSSYGNAFGGGTEVVVK
Out: 6.37
